# System: 5-HT, rat fundus strip
# EXPERIMENTAL_PROTOCOL: 5-HT antagonism, rat fundus strip
# DETAILS: Rattus norvegicus, 10 min, read-out: 5HT rat-fundus-strip IC50
pIC50: −log10 of the molar value. Where a name gives a salt, the structure may show the parent alone.
Label Yes when pIC50 is at or above 7; otherwise label No.

Worked examples follow.
OCCN1CC=C(C2=CC(c3ccc(F)cc3)c3ccc(C(F)(F)F)cc32)CC1 (stereo not shown) [Lu 20-004, hydrobromide]: No
Cc1ccc2c(c1)C(C1=CCN(CCO)CC1)=CC2c1ccc(F)cc1 (stereo not shown) [Lu 19-153, hydrobromide]: Yes
OCCN1CCC(C2=CC(c3ccc(F)cc3)c3ccc(F)cc32)CC1 (stereo not shown) [Lu 19-158, hydrochloride]: Yes
CSc1ccc2c(c1)C(N1CCN(C)CC1)Cc1ccccc1S2 (stereo not shown) [Methiothepin, reference compound]: Yes
CN(C)CCCN1c2ccccc2Sc2ccc(Cl)cc21 [Chlorpromazine, reference compound]: No

Decide: pIC50 of Cc1ccc2c(c1)C(C1CCN(CCO)CC1)=CC2c1ccc(F)cc1 (stereo not shown) [Lu 20-008, hydrochloride] >= 7? Yes

Test whether the compound CN1CCC(C2=CC(c3ccc(F)cc3)c3ccc(C(F)(F)F)cc32)CC1 (stereo not shown) [Lu 20-071, hydrobromide] records pIC50 of 7 or higher. No

# check: pIC50 of OCCN1CCN(CC/C=C2/c3ccccc3Sc3ccc(C(F)(F)F)cc32)CC1 [Cis(Z)-flupentixol, reference compound] is greater than or equal to 7 No

I'd appreciate it if you could say whether O=C(c1ccc(F)cc1)C1CCN(CCn2c(=O)[nH]c3ccccc3c2=O)CC1 [Ketanserin, reference compound] has pIC50 at least equal to 7. No

----------
# TESTED_TARGET: 5-HT2 receptors (Rattus norvegicus, UniProt P14842)
# Construct: Whole cortex is dissected out and homogenized
# Sequence (P14842 whole entry): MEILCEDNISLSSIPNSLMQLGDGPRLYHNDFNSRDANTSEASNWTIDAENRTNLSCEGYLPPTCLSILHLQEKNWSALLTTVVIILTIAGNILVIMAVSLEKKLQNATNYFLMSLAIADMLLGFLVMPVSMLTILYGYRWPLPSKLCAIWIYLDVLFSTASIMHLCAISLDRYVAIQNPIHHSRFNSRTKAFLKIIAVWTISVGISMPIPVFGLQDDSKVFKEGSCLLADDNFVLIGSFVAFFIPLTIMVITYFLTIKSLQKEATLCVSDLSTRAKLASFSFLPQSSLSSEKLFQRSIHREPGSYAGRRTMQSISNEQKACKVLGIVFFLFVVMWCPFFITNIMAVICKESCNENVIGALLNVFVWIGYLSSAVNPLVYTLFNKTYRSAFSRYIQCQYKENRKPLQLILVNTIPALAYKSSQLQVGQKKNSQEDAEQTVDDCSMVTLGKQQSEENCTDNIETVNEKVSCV
# EXPERIMENTAL_PROTOCOL: 3H-spiroperidol binding to rat cortical membranes (5-HT2 receptors)
# DETAILS: Table 1, read-out: 3H-Spiroperidol bindings 5-HT2 receptors IC50
Where a name gives a salt, the structure may show the parent alone.
REPORTED_ENDPOINT: IC50 (nM)
Answers are plain numbers, in nM.

Below, 2 molecules whose answers are already recorded.
CSc1ccc2c(c1)C(N1CCN(C)CC1)Cc1ccccc1S2 (centres unmarked) [Methiothepin, reference compound]: 6.8
O=C1NCCN1CCN1CCC(C2C=C(c3ccc(F)cc3)c3ccc(F)cc32)CC1 (centres unmarked) [Lu 20-053]: 31

Record IC50 per entry; entries follow.
1. Cc1ccc2c(c1)C(C1CCN(CCO)CC1)=CC2c1ccc(F)cc1 (centres unmarked) [Lu 20-008, hydrochloride]
2. OCCN1CC=C(C2=CC(c3ccc(F)cc3)c3ccc(C(F)(F)F)cc32)CC1 (centres unmarked) [Lu 20-004, hydrobromide]

4
35

# batch size: 2; output IC50 per entry
1. CN1CCC(C2=CC(c3ccc(F)cc3)c3ccc(C(F)(F)F)cc32)CC1 (centres unmarked) [Lu 20-071, hydrobromide]
2. OCCN1CCC(C2=CC(c3ccc(F)cc3)c3ccc(F)cc32)CC1 (centres unmarked) [Lu 19-158, hydrochloride]

1: 15; 2: 2.8

For the 2 molecules below, give their IC50 values.
1. OCCN1CCN(CC/C=C2/c3ccccc3Sc3ccc(C(F)(F)F)cc32)CC1 [Cis(Z)-flupentixol, reference compound]
2. Cc1ccc2c(c1)C(C1=CCN(CCO)CC1)=CC2c1ccc(F)cc1 (centres unmarked) [Lu 19-153, hydrobromide]

13
4.6

----------
# TESTED_TARGET: D-2 receptors (Rattus norvegicus)
# Construct: The corpora striata are dissected out and homogenized
# Sequence (P61169 whole entry): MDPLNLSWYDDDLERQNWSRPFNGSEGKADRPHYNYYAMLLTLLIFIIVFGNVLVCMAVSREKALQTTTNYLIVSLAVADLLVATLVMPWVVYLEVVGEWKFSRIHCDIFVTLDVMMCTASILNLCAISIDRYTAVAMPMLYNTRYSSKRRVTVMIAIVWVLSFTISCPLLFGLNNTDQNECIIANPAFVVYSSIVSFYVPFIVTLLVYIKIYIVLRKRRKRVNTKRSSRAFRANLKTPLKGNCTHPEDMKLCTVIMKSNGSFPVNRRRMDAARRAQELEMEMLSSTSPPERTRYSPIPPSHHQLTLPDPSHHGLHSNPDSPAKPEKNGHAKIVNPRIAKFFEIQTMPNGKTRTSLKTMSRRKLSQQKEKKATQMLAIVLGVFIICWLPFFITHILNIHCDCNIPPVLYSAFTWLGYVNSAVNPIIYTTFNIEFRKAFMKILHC
# EXPERIMENTAL_PROTOCOL: 3H-spiroperidol binding to rat striatal membranes (D-2 receptors)
# DETAILS: Table 1, read-out: 3H-Spiroperidol bindings DA-2 receptors IC50
Counter-ions that a name gives are not always drawn.
REPORTED_ENDPOINT: IC50 (nM)
Answers are plain numbers, in nM.

CSc1ccc2c(c1)C(N1CCN(C)CC1)Cc1ccccc1S2 (centres unmarked) [Methiothepin, reference compound]: 2.6
O=C(c1ccc(F)cc1)C1CCN(CCn2c(=O)[nH]c3ccccc3c2=O)CC1 [Ketanserin, reference compound]: 2300
O=C1NCCN1CCN1CCC(C2C=C(c3ccc(F)cc3)c3ccc(F)cc32)CC1 (centres unmarked): 83
Cc1ccc2c(c1)C(C1CCN(CCO)CC1)=CC2c1ccc(F)cc1 (centres unmarked) [Lu 20-008, hydrochloride]: 8.9

Continue with the next molecule.
Form entry - test system: D-2 receptors (Rattus norvegicus); read-out: IC50; molecule: OCCN1CCC(C2=CC(c3ccc(F)cc3)c3ccc(F)cc32)CC1 (centres unmarked) [Lu 19-158, hydrochloride] 12

FYI, the data here is from patent US4525360A.
